Source: ChEMBL document CHEMBL3112561

This section presents molecules with their documented pEC50 values.
Target: Glucokinase regulatory protein (Mus musculus)
Sequence (Q91X44 whole entry): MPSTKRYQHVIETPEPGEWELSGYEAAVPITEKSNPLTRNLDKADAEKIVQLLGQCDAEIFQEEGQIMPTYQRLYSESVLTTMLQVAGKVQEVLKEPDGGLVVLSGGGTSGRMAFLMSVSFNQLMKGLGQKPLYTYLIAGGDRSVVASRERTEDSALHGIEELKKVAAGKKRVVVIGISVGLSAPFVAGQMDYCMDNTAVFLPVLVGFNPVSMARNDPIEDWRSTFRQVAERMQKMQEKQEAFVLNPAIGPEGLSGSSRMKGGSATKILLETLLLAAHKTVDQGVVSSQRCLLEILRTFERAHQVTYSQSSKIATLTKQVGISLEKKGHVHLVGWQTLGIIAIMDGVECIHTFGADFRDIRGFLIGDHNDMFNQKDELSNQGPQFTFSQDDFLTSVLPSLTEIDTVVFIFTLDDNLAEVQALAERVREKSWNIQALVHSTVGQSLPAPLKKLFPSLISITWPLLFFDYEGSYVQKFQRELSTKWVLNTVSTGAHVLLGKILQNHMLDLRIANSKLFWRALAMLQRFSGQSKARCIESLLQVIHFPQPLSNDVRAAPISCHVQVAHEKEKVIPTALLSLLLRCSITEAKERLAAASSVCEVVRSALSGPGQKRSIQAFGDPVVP
Assay: Induction of GK translocation from nucleus to cytoplasm of mouse hepatocytes preincubated for 20 mins followed by glucose challenge measured after 40 mins by Hoechst 33342 staining-based assay
pEC50: −log10 of the molar value.

For orientation, consider the following solved cases.
molecule: C[C@](O)(c1ccc(N2CCN(S(=O)(=O)c3cccs3)C[C@@H]2CN2[C@@H]3COC[C@H]2[C@@H](O)C3)cc1)C(F)(F)F
pEC50: < 4.90
--
molecule: CCC#CC1CN(S(=O)(=O)c2ccc(N)nc2)CCN1c1ccc(C(O)(C(F)(F)F)C(F)(F)F)cc1 (racemic)
pEC50: 5.53
--
molecule: Nc1csc(S(=O)(=O)N2CCN(c3ccc(C(O)(C(F)(F)F)C(F)(F)F)cc3)CC2)c1
pEC50: < 4.90

So for "Nc1ccccc1S(=O)(=O)N1CCN(c2ccc(C(O)(C(F)(F)F)C(F)(F)F)cc2)CC1" , the logged pEC50 turned out to be < 4.90

pEC50 for CC(O)(c1ccc(N2CCN(S(=O)(=O)c3cccs3)C[C@@H]2CN2CCC(F)(F)CC2)cc1)C(F)(F)F (mixture of isomers) is < 4.90

Noted for CC(O)(c1ccc(N2CCN(S(=O)(=O)c3cccs3)C[C@@H]2CN2CCS(=O)(=O)CC2)cc1)C(F)(F)F (mixture of isomers) : its pEC50 reads < 4.90

pEC50 reading for CC1CS(=O)(=O)CCN1C[C@H]1CN(S(=O)(=O)c2cccs2)CCN1c1ccc(C(C)(O)C(F)(F)F)cc1 (mixture of isomers) : < 4.90

Value of pEC50 reported for the molecule CC(O)(c1ccc(N2CCN(S(=O)(=O)c3cccs3)C[C@@H]2CN2[C@H]3COC[C@H]2[C@H](O)C3)cc1)C(F)(F)F (mixture of isomers) is 5.77

pEC50 measured on CC(O)(c1ccc(N2CCN(S(=O)(=O)c3cccs3)C[C@@H]2CN2C3CCC2COC3)cc1)C(F)(F)F (mixture of isomers) = 6.62
